Value source: patent US20240350447A1

assay: Biodistribution of DHA after periorbital skin (NIODP) application to one eye; format: in vivo, Cynomolgus monkeys; conditions: cynomolgus monkey, plasma, topical; 3 h post dose; 6755.1 μg to OS via NIODP; read-out: DHA in plasma
observation-type: concentration at 3 h (ng/mL)
Give the value, in units of ng/mL, as a plain number.

State the recorded concentration at 3 h for this entry: `CC/C=C\C/C=C\C/C=C\C/C=C\C/C=C\C/C=C\CCC(=O)O`
3100

###

experiment: DHA distribution after single periorbital skin administration; format: in vivo, Bama minipigs; details: Bama, minipig, brain, left half, topical, 6092 μg/eye; 3 h; DHA 6092 μg to periorbital skin of left eye; read-out: Drug Concentration in Tissue: brain-left
observation-type: concentration at 3 h (ng/g)
Give the value, in units of ng/g, as a plain number.

State the recorded concentration at 3 h for this entry: `CC/C=C\C/C=C\C/C=C\C/C=C\C/C=C\C/C=C\CCC(=O)O`
27100

###

experiment: Biodistribution of DHA after periorbital skin (NIODP) application to one eye; type: in vivo, Cynomolgus monkeys; settings: cynomolgus monkey, vitreous humor of the dosed left eye (OS), topical; OS (dosed eye); 3 h; 6755.1 μg to OS via NIODP; read-out: DHA in vitreous humor
observation-type: concentration at 3 h (ng/mL)
Give the value, in units of ng/mL, as a plain number.

State the recorded concentration at 3 h for this entry: CC/C=C\C/C=C\C/C=C\C/C=C\C/C=C\C/C=C\CCC(=O)O [DHA, docosahexaenoic acid]
0

###

assay: DHA distribution after single periorbital skin administration; assay type: in vivo, Bama minipigs; settings: Bama, minipig, brain (average of left and right halves), topical, 6092 μg/eye; 3 h; DHA 6092 μg to periorbital skin of left eye; read-out: Average DHA present in the brain (left and right halves)
observation-type: concentration at 3 h
State the value, then name its unit.

State the recorded concentration at 3 h for this entry: `CC/C=C\C/C=C\C/C=C\C/C=C\C/C=C\C/C=C\CCC(=O)O`
26000 ng/g

###

assay: Biodistribution of DHA after periorbital skin (NIODP) application to one eye; type: in vivo, Cynomolgus monkeys; details: cynomolgus monkey, retina of the undosed right eye (OD), topical; OD (undosed eye); 3 h; 6755.1 μg to OS via NIODP; read-out: DHA in retina
observation-type: concentration at 3 h

State the recorded concentration at 3 h for this entry: `CC/C=C\C/C=C\C/C=C\C/C=C\C/C=C\C/C=C\CCC(=O)O`
97300 ng/g

###

test: Biodistribution of DHA after periorbital skin (NIODP) application to one eye; type: in vivo, Cynomolgus monkeys; settings: cynomolgus monkey, vitreous humor of the undosed right eye (OD), topical; OD (undosed eye); 6 h; 6755.1 μg to OS via NIODP; read-out: DHA in vitreous humor
observation-type: concentration at 6 h (ng/mL)
Give the value, in units of ng/mL, as a plain number.

State the recorded concentration at 6 h for this entry: CC/C=C\C/C=C\C/C=C\C/C=C\C/C=C\C/C=C\CCC(=O)O [DHA, docosahexaenoic acid]
0

###

experiment: Biodistribution of DHA after periorbital skin (NIODP) application to one eye; assay type: in vivo, Cynomolgus monkeys; conditions: cynomolgus monkey, upper eyelid of the undosed right eye (OD), topical; OD (undosed eye); 3 h; 6755.1 μg to OS via NIODP; read-out: DHA in upper eyelid
observation-type: concentration at 3 h
State the value, then name its unit.

State the recorded concentration at 3 h for this entry: `CC/C=C\C/C=C\C/C=C\C/C=C\C/C=C\C/C=C\CCC(=O)O`
5800 ng/g

###

assay: DHA distribution after single periorbital skin administration; type: in vivo, Bama minipigs; details: Bama, minipig, cerebrospinal fluid, topical, 6092 μg/eye; 3 h; DHA 6092 μg to periorbital skin of left eye; read-out: Drug Concentration in Tissue: Cerebrospinal fluid
observation-type: concentration at 3 h

State the recorded concentration at 3 h for this entry: `CC/C=C\C/C=C\C/C=C\C/C=C\C/C=C\C/C=C\CCC(=O)O`
0 ng/g

###

assay: DHA distribution after single periorbital skin administration; format: in vivo, Bama minipigs; conditions: Bama, minipig, medial rectus muscle, left (dosed side), topical, 6092 μg/eye; 3 h; DHA 6092 μg to periorbital skin of left eye; read-out: Drug Concentration in Tissue: medial rectus muscle-left
observation-type: concentration at 3 h (ng/g)
Give the value, in units of ng/g, as a plain number.

State the recorded concentration at 3 h for this entry: CC/C=C\C/C=C\C/C=C\C/C=C\C/C=C\C/C=C\CCC(=O)O [DHA, docosahexaenoic acid]
2720

###

experiment: DHA distribution after single periorbital skin administration; assay type: in vivo, Bama minipigs; conditions: Bama, minipig, inferior rectus muscle, right (undosed side), topical, 6092 μg/eye; 3 h; DHA 6092 μg to periorbital skin of left eye; read-out: Drug Concentration in Tissue: inferior rectus muscle-right
observation-type: concentration at 3 h
State the value, then name its unit.

State the recorded concentration at 3 h for this entry: `CC/C=C\C/C=C\C/C=C\C/C=C\C/C=C\C/C=C\CCC(=O)O`
2340 ng/g

###

assay: Biodistribution of DHA after periorbital skin (NIODP) application to one eye; type: in vivo, Cynomolgus monkeys; details: cynomolgus monkey, plasma, topical; 6 h post dose; 6755.1 μg to OS via NIODP; read-out: DHA in plasma
observation-type: concentration at 6 h (ng/mL)
Give the value, in units of ng/mL, as a plain number.

State the recorded concentration at 6 h for this entry: `CC/C=C\C/C=C\C/C=C\C/C=C\C/C=C\C/C=C\CCC(=O)O`
2100

###

experiment: Biodistribution of DHA after periorbital skin (NIODP) application to one eye; format: in vivo, Cynomolgus monkeys; conditions: cynomolgus monkey, vitreous humor of the dosed left eye (OS), topical; OS (dosed eye); 0.5 h; 6755.1 μg to OS via NIODP; read-out: DHA in vitreous humor
observation-type: concentration at 0.5 h (µg/mL)
Give the value, in units of µg/mL, as a plain number.

State the recorded concentration at 0.5 h for this entry: CC/C=C\C/C=C\C/C=C\C/C=C\C/C=C\C/C=C\CCC(=O)O [DHA, docosahexaenoic acid]
0

###

test: Biodistribution of DHA after periorbital skin (NIODP) application to one eye; assay type: in vivo, Cynomolgus monkeys; conditions: cynomolgus monkey, cornea of the undosed right eye (OD), topical; OD (undosed eye); 6 h; 6755.1 μg to OS via NIODP; read-out: DHA in cornea
observation-type: concentration at 6 h (ng/g)
Give the value, in units of ng/g, as a plain number.

State the recorded concentration at 6 h for this entry: `CC/C=C\C/C=C\C/C=C\C/C=C\C/C=C\C/C=C\CCC(=O)O`
0

###

assay: Biodistribution of DHA after periorbital skin (NIODP) application to one eye; assay type: in vivo, Cynomolgus monkeys; conditions: cynomolgus monkey, cornea of the undosed right eye (OD), topical; OD (undosed eye); 0.5 h; 6755.1 μg to OS via NIODP; read-out: DHA in cornea
observation-type: concentration at 0.5 h (ng/g)
Give the value, in units of ng/g, as a plain number.

State the recorded concentration at 0.5 h for this entry: CC/C=C\C/C=C\C/C=C\C/C=C\C/C=C\C/C=C\CCC(=O)O [DHA, docosahexaenoic acid]
0

###

assay: Biodistribution of DHA after periorbital skin (NIODP) application to one eye; format: in vivo, Cynomolgus monkeys; details: cynomolgus monkey, retina of the undosed right eye (OD), topical; OD (undosed eye); 0 h (baseline); 6755.1 μg to OS via NIODP; read-out: DHA in retina
observation-type: concentration at 0 h (ng/g)
Give the value, in units of ng/g, as a plain number.

State the recorded concentration at 0 h for this entry: CC/C=C\C/C=C\C/C=C\C/C=C\C/C=C\C/C=C\CCC(=O)O [DHA, docosahexaenoic acid]
16500

###

assay: Biodistribution of DHA after periorbital skin (NIODP) application to one eye; type: in vivo, Cynomolgus monkeys; details: cynomolgus monkey, vitreous humor of the undosed right eye (OD), topical; OD (undosed eye); 3 h; 6755.1 μg to OS via NIODP; read-out: DHA in vitreous humor
observation-type: concentration at 3 h
State the value, then name its unit.

State the recorded concentration at 3 h for this entry: `CC/C=C\C/C=C\C/C=C\C/C=C\C/C=C\C/C=C\CCC(=O)O`
0 ng/mL

###

test: Biodistribution of DHA after periorbital skin (NIODP) application to one eye; assay type: in vivo, Cynomolgus monkeys; details: cynomolgus monkey, retina of the undosed eye / plasma, topical, 6775.1 μg/eye; each post dose timepoint; DHA to OS via NIODP; read-out: Retina/plasma ratio of DHA in the undosed eye
observation-type: Kp

State the recorded Kp for this entry: `CC/C=C\C/C=C\C/C=C\C/C=C\C/C=C\C/C=C\CCC(=O)O`
≥ 30

###

assay: Biodistribution of DHA after periorbital skin (NIODP) application to one eye; assay type: in vivo, Cynomolgus monkeys; details: cynomolgus monkey, cornea of the undosed right eye (OD), topical; OD (undosed eye); 3 h; 6755.1 μg to OS via NIODP; read-out: DHA in cornea
observation-type: concentration at 3 h

State the recorded concentration at 3 h for this entry: `CC/C=C\C/C=C\C/C=C\C/C=C\C/C=C\C/C=C\CCC(=O)O`
0 ng/g
